Listing: growth inhibition of selected compounds
experimental-details: NCI Yeast Anticancer Drug Screen. Data for the mlh1 rad18 strain (AID 175)
study-conditions: S. cerevisiae mlh1 rad18 strain growth inhibition; at 50.0 µM (retest, dose inferred, filed as 5.0); hits give high values
This is part of a sample that, as a whole, favours compounds with a hit. Of some 79,000 tested, about 15% had one in any assay. Calls of active or inactive are those of the source. Cut-off read from the data, not from the text of the source: active = growth inhibition above about 70%; inactive = the rest.

See these solved cases before continuing.
O=C1NN=C(c2ccc(Cl)cc2)CC1C1C(=O)N(c2ccccc2)N=C1c1ccccc1 (centres undefined) ... 96% (active)
C/C(=N\NC(N)=S)c1ccc(Oc2ccccc2)cc1 ... 89% (active)
CCCCCCOC(=O)COc1ccccc1 ... 0% (inactive)
OC1CC2CCC(C1)N2CCCN1c2ccccc2Sc2ccc(Cl)cc21 (centres undefined) ... 97% (active)
CCCCCN(CCCCC)C(=S)Nc1ccccc1 ... 90% (active)

In: Value lookup for growth inhibition; key = O=C1OCCCN1/N=C/c1ccc([N+](=O)[O-])o1
Out: 78% (active)

In: Value lookup for growth inhibition; key = NSc1ccc(N)s1
Out: 12% (inactive)

====

experimental-details: NCI Yeast Anticancer Drug Screen. Data for the bub3 strain (AID 167)
study-conditions: S. cerevisiae bub3 mutant strain, at 50.0 µM
About 79,000 compounds went through this panel and 15% of them were active in at least one assay; those are over-represented in the sample as a whole. The source made the active and inactive calls. No stated cut-off is given here; in the data, active means growth inhibition above about 70%; inactive means the rest.
Lab note: assign the record to one of active, inactive

Reference set (3 entries):
O=C(O)C1(Cc2ccc3c(c2)CCC3)Cc2ccccc2C1 ... active
O=c1[nH]cc(F)c(=O)n1C1CCCCO1 (centres undefined) ... inactive
Nc1ccc(O)c2c1C(=O)c1ccccc1C2O (centres undefined) ... active

# ---- query compound ----
In: Short answer needed: outcome of this test for CCN(CC)CCNc1c2ccccc2nc2cccc([N+](=O)[O-])c12 ?
Out: inactive

====

experimental-details: NCI Yeast Anticancer Drug Screen. Data for the mlh1 rad18 strain (AID 175)
study-conditions: S. cerevisiae mlh1 rad18 strain growth inhibition; at 50.0 µM; hits give high values
Compounds without any hit were thinned out: in the full panel of roughly 79,000, 15% have a hit.
property-measured: growth inhibition (%)
Give the quantity in %, number only.

O=[N+]([O-])c1ccc(-c2cccc(Cl)c2)c([N+](=O)[O-])c1 ... 97.9
CC[N+](C)(CC)CCC[n+]1c(-c2ccccc2)c2cc(N)ccc2c2ccc(N)cc21 ... 82
COc1ccc(-c2noc(=O)c3ccccc23)cc1 ... 1.35
c1ccc(OCC2c3ccccc3Nc3ccccc32)cc1 ... 67.2

In: Value lookup for growth inhibition; key = COc1cccc(C2c3cc4c(cc3OC(NNc3ccccc3)C2C)OCO4)c1O (stereo not drawn)
Out: 95.7

In: Value lookup for growth inhibition; key = CCN(CC)c1c(C(=O)/C=C/c2ccc(F)cc2)c(-c2ccccc2)nn(C)c1=O
Out: 86.2

In: Value lookup for growth inhibition; key = COc1cc2c(c(C3C(=O)N(C)c4ccc(Br)cc43)c1OC)OCO2 (stereo not drawn)
Out: 8.55

In: Value lookup for growth inhibition; key = COc1ccc2c(c1)[n+]([O-])c(C(N)=O)c(N)[n+]2[O-]
Out: 99.2

In: Value lookup for growth inhibition; key = Cc1ccc(NC(=O)Cc2nc3ccccc3s2)c(C)c1
Out: 99

In: Value lookup for growth inhibition; key = Cc1cc(NCCCCCCNc2cc(C)nc3cc(N(C)C)ccc23)c2ccc(N(C)C)cc2n1
Out: 7.45

In: Value lookup for growth inhibition; key = O=C1c2ccccc2CN1Cc1ccc(Cl)c(Cl)c1
Out: 65

In: Value lookup for growth inhibition; key = CS(=O)(=O)N1C(=O)C2C3CCC(O3)C2C1=O (stereo not drawn)
Out: 42.6

In: Value lookup for growth inhibition; key = CCc1cc2c(c3c1C(=O)CC3)C(C)(C)CCC2
Out: 5

In: Value lookup for growth inhibition; key = COc1ccc2c(c1OC)OCC2C (stereo not drawn)
Out: 43.2

In: Value lookup for growth inhibition; key = Cc1cccc(N=Nc2ccc(O)cc2)c1
Out: 99.3

In: Value lookup for growth inhibition; key = CN(C)CC(CN1CCCC1)C(=O)c1ccccc1 (stereo not drawn)
Out: 75.2

In: Value lookup for growth inhibition; key = CC(C)C1=CC23CCC4C(C)(C(=O)O)CCCC4(C)C2CC1C1C(=O)C=CC(=O)C13 (stereo not drawn)
Out: 55.4

In: Value lookup for growth inhibition; key = Cc1cc2oc3c(ccc(=O)n3C)c(=O)c2c(C)c1Cl
Out: 17.9

In: Value lookup for growth inhibition; key = COc1cc(C)cc(C(=O)OCc2ccccc2)c1C1=C(Cl)C(=O)C(Cl)=CC1=O
Out: 74.5

In: Value lookup for growth inhibition; key = Nc1c2c(=O)[nH]c(=O)c2c(N)c2c(=O)c3ccccc3c(=O)c12
Out: 60.6

In: Value lookup for growth inhibition; key = Cc1c(-c2ccccc2)ccnc1/C=N/NS(=O)(=O)c1ccccc1
Out: 52.2
